FYI, the data here is from the supplement of paper PMC7125110.

B1: glmS ribozyme (parent)
chain: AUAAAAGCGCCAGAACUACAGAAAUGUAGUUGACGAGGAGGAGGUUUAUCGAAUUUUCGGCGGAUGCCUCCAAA

Variants of: B1
Assay: self-cleavage kobs at 2500 uM GlcN6P; higher = faster cleavage; RNA array
Conditions: with glucosamine-6-phosphate
Fewer inactive variants are shown than the library holds.

[
  {
    "mutations": "A14U A33U A53C G63U",
    "self-cleavage kobs at 2500 uM GlcN6P": "< 1e-05 s⁻¹"
  },
  {
    "mutations": "G7C G37C",
    "self-cleavage kobs at 2500 uM GlcN6P": "< 1e-05 s⁻¹"
  },
  {
    "mutations": "G38A A42U C70A",
    "self-cleavage kobs at 2500 uM GlcN6P": "< 1e-05 s⁻¹"
  },
  {
    "mutations": "A14U A48U G51A A52G",
    "self-cleavage kobs at 2500 uM GlcN6P": "< 1e-05 s⁻¹"
  },
  {
    "mutations": "U31A G35C A39U C67A C70U",
    "self-cleavage kobs at 2500 uM GlcN6P": "< 1e-05 s⁻¹"
  },
  {
    "mutations": "G35A C67A",
    "self-cleavage kobs at 2500 uM GlcN6P": "< 1e-05 s⁻¹"
  },
  {
    "mutations": "A36G G40U U45G",
    "self-cleavage kobs at 2500 uM GlcN6P": "< 1e-05 s⁻¹"
  },
  {
    "mutations": "G13C G32A U45A A52U G60A G62C A64G C68U",
    "self-cleavage kobs at 2500 uM GlcN6P": "< 1e-05 s⁻¹"
  },
  {
    "mutations": "A6C G13A A52C",
    "self-cleavage kobs at 2500 uM GlcN6P": "< 1e-05 s⁻¹"
  },
  {
    "mutations": "A48C C50A A52G",
    "self-cleavage kobs at 2500 uM GlcN6P": "< 1e-05 s⁻¹"
  },
  {
    "mutations": "C8U G9U A15C G44U",
    "self-cleavage kobs at 2500 uM GlcN6P": "< 1e-05 s⁻¹"
  },
  {
    "mutations": "A39U G41C A52U",
    "self-cleavage kobs at 2500 uM GlcN6P": "< 1e-05 s⁻¹"
  },
  {
    "mutations": "G37U G40U C67G",
    "self-cleavage kobs at 2500 uM GlcN6P": "< 1e-05 s⁻¹"
  },
  {
    "mutations": "C34A A36G A39C",
    "self-cleavage kobs at 2500 uM GlcN6P": "< 1e-05 s⁻¹"
  },
  {
    "mutations": "A36C G44U C61U C67U",
    "self-cleavage kobs at 2500 uM GlcN6P": "< 1e-05 s⁻¹"
  },
  {
    "mutations": "C8A G13C U46G U56A U69C C70G",
    "self-cleavage kobs at 2500 uM GlcN6P": "< 1e-05 s⁻¹"
  },
  {
    "mutations": "C10A U47G",
    "self-cleavage kobs at 2500 uM GlcN6P": "< 1e-05 s⁻¹"
  },
  {
    "mutations": "G13C U31G A36G U46A C70G",
    "self-cleavage kobs at 2500 uM GlcN6P": "< 1e-05 s⁻¹"
  },
  {
    "mutations": "C34A C68U",
    "self-cleavage kobs at 2500 uM GlcN6P": "< 1e-05 s⁻¹"
  },
  {
    "mutations": "A36G G59U",
    "self-cleavage kobs at 2500 uM GlcN6P": "< 1e-05 s⁻¹"
  },
  {
    "mutations": "C11U G43A A48U A53C C61U",
    "self-cleavage kobs at 2500 uM GlcN6P": "< 1e-05 s⁻¹"
  },
  {
    "mutations": "G60U C68G",
    "self-cleavage kobs at 2500 uM GlcN6P": "< 1e-05 s⁻¹"
  },
  {
    "mutations": "C34U G43U A53G U55A A64U",
    "self-cleavage kobs at 2500 uM GlcN6P": "< 1e-05 s⁻¹"
  },
  {
    "mutations": "C34A A64C C68U",
    "self-cleavage kobs at 2500 uM GlcN6P": "< 1e-05 s⁻¹"
  }
]
